Each entry below carries its reported TGI.
System: SF-268 CNS
experimental.details: NCI tumour cell line growth inhibition, 48 h

NC1CC(n2ccc(=O)[nH]c2=O)OC1C(O)CO (stereo not drawn); > 100 µM
O=C1C[C@@]23CCC4(CC2=CCC[C@H]3O1)OCCO4; > 100 µM

### Prompt Given the compound "CCOC(=O)NC/C=C/CO" , what is its reported TGI?
### Response > 100 µM

* * *

Tested on: SK-MEL-2 melanoma
experimental.details: NCI tumour cell line growth inhibition, 48 h
outcome.measure: TGI

Here are 3 compounds together with their reported answers.
CN(C)c1ccc(/C=C2\Cc3ccccc3C2=O)cc1Br; > 100 µM
O=C(Cn1c(-c2ccccc2)cc2ccccc21)N1CCOCC1; > 100 µM
Cc1cc2c(=O)cc(-c3ccncc3)oc2c(C(=O)O)c1C; > 100 µM

### Prompt Recorded TGI for "CN(C)c1ccc(/C=C2\CCCCCC2=O)cc1" with SK-MEL-2 melanoma, please?
### Response > 100 µM

### Prompt Recorded TGI for "CC(=O)OC/C=C/Cn1nc(Br)c(=O)[nH]c1=O" with SK-MEL-2 melanoma, please?
### Response > 100 µM

### Prompt Recorded TGI for "N#Cc1c(N/N=C/c2c(Cl)cccc2Cl)nc(N)nc1N1CCCC1" with SK-MEL-2 melanoma, please?
### Response > 100 µM

### Prompt Recorded TGI for "CN1C/C(=C\c2ccco2)c2nc(N)nc(-c3ccco3)c2C1" with SK-MEL-2 melanoma, please?
### Response > 100 µM

* * *

System: HOP-62 NSCLC
experimental.details: NCI tumour cell line growth inhibition, 48 h
Please note: TRUE applies when TGI is 6 µM or greater, and FALSE applies otherwise.

### Prompt Is the recorded value of TGI equal to or greater than 6 µM for this compound? "COc1ccc2c3c(c4cc(OC)c(OC)cc4c2c1)C[C@H]1CCCCN1C3"
### Response FALSE

### Prompt Is the recorded value of TGI equal to or greater than 6 µM for this compound? "Oc1[nH]c2ccccc2c1N=Nc1nc(-c2ccccc2)cs1"
### Response TRUE

### Prompt Is the recorded value of TGI equal to or greater than 6 µM for this compound? "Cc1nnc(N)s/c1=N/O"
### Response TRUE

### Prompt Is the recorded value of TGI equal to or greater than 6 µM for this compound? "CC1=CC(=O)N2[C@H](OC[C@@H]2C(C)C)O1"
### Response TRUE

### Prompt Is the recorded value of TGI equal to or greater than 6 µM for this compound? "Cc1c(N(Cc2ccccc2)Cc2ccccc2)nc(S(C)(=O)=O)nc1S(C)(=O)=O"
### Response TRUE

* * *

Each entry below carries its reported TGI.
Test system: MDA-MB-231 breast
experimental.details: NCI tumour cell line growth inhibition, 48 h

Here are 4 compounds together with their reported answers.
Oc1ccc(/C=N/Nc2nnc(N/N=C/c3ccc(O)cc3O)c3ccccc23)c(O)c1; > 46.2 µM
CC(=O)Oc1c(OC(C)C)cc(=O)n2ccsc12; > 100 µM
Clc1ccc(N=CNc2ccc(-c3nc4ccccc4[nH]3)cc2)cc1; > 100 µM
COC(=O)C1CCC(=S)N1C(C)=O (stereo unspecified); > 100 µM

### Prompt Given the compound "CO/C(N)=C(\C#N)N=Cc1cccs1" , what is its reported TGI?
### Response > 100 µM

### Prompt Given the compound "Cc1cc2c(SCc3ccccc3Cl)nc(N)nc2nc1C" , what is its reported TGI?
### Response > 100 µM

* * *

Test system: HOP-92 NSCLC
experimental.details: NCI tumour cell line growth inhibition, 48 h; in the data active means GI50 below about 0.43 µM; inactive means the rest
Could you please pick one outcome from this set? 1.0 for active, 0.0 for inactive

Reference set (2 entries):
O=C1C(=O)c2c(ccc3ccccc23)-c2ccccc21; 0.0
CS(=O)(=O)Nc1ccc(Nc2c3ccccc3nc3cc(Cl)ccc23)cc1; 1.0

### Prompt # outcome recorded in this test, key = "CN1CCN(Cc2ccc(NC(=O)c3cncc(C#Cc4cnc5cccnn45)c3)cc2C(F)(F)F)CC1"
### Response 0.0

### Prompt # outcome recorded in this test, key = "CCC(=C(c1ccc(OCCN(CC)CC)cc1)c1ccc(OCCN(CC)CC)cc1)c1ccc(Cl)cc1"
### Response 0.0

* * *

System: HL-60(TB) leukemia
experimental.details: NCI tumour cell line growth inhibition, 48 h
Each entry below carries its reported TGI.
Express the result in µM but write the number alone.

Here are 4 molecules together with their reported answers.
COc1ccc(/[N+]([O-])=C/c2ccccc2OC(=S)S)cc1; 70.8
CCCCc1c2c(nc3c1CC/C(=C\c1ccccc1)C3=O)CCCC2; 10.3
O=C(NCc1cccnc1)c1ccc([N+](=O)[O-])o1; 25
COc1ccc(Sc2ccccc2[N+](=O)[O-])cc1; 20.8

### Prompt Given the molecule "CCOC(=O)c1c(SCCN(CC)CC)n(-c2ccccc2)c(=S)n(-c2ccccc2)c1=O" , what is its reported TGI?
### Response 3.61

### Prompt Given the molecule "N#Cc1c(N/N=C/c2c(Cl)cccc2Cl)nc(N)nc1N1CCCC1" , what is its reported TGI?
### Response 7.04

### Prompt Given the molecule "N#Cc1c(N)n(-c2nc3ccccc3s2)c(=O)c2cc([N+](=O)[O-])ccc12" , what is its reported TGI?
### Response 24.9

* * *

Each entry below carries its reported TGI.
System: U251 CNS
experimental.details: NCI tumour cell line growth inhibition, 48 h

CCOC(=O)N/N=C(/N)Cc1ccc(Cl)cc1; > 100 µM
COc1ccc(OC)c2c(Nc3ccc(S(=O)(=O)O)c4cc(S(=O)(=O)O)cc(S(=O)(=O)O)c34)cc(C)nc12; > 100 µM

Kindly consider the entry below.
### Prompt Given the molecule "CCOP(=O)(OCC)/C(C#N)=C(\C)c1ccco1" , what is its reported TGI?
### Response > 10 µM

* * *

Each entry below carries its reported TGI.
System: T-47D breast
experimental.details: NCI tumour cell line growth inhibition, 48 h
Express the result in µM but write the number alone.

Here are 3 compounds together with their reported answers.
COc1ccc(S(=O)(=O)NCCCNc2nccc(-c3c(-c4ccc(F)cc4)nc4sccn34)n2)cc1; 71.3
CCOC(=O)c1c(SCCN(CC)CC)n(-c2ccccc2)c(=S)n(-c2ccccc2)c1=O; 15.3
COC(=O)c1ccccc1NCc1cc(O)ccc1O; 31.8

Kindly consider the entry below.
### Prompt Given the compound "c1csc(-c2[nH]nc3c2CCc2ccccc2-3)c1" , what is its reported TGI?
### Response 0.515

* * *

Test system: SNB-19 CNS
experimental.details: NCI tumour cell line growth inhibition, 48 h
Each entry below carries its reported TGI.

CCOC(=O)c1c(/C=N\Nc2ccccc2)nc2ccccc2c1-c1ccccc1; > 100 µM

### Prompt Recorded TGI for CCOC(=O)C1C(=O)C(=O)N2CCc3c([nH]c4ccccc34)C12 (stereo not given) with SNB-19 CNS, please?
### Response > 100 µM

### Prompt Recorded TGI for "CCN(CC)CCCNc1nnc(C)c2[nH]c3ccccc3c12" with SNB-19 CNS, please?
### Response > 100 µM

### Prompt Recorded TGI for "Nc1nc2c(ccc3ccccc32)[nH]1" with SNB-19 CNS, please?
### Response > 10 µM

### Prompt Recorded TGI for "O=C(CO[N+](=O)[O-])OCC(=O)c1ccccc1" with SNB-19 CNS, please?
### Response > 100 µM

* * *

Each entry below carries its reported TGI.
Tested on: TK-10 renal
experimental.details: NCI tumour cell line growth inhibition, 48 h

COc1ccc(C[C@H](N)C(=O)N[C@@H]2[C@@H](CO)OC(n3cnc4c(N(C)C)ncnc43)[C@@H]2O)cc1 (stereo partly specified); 1.38 µM

### Prompt Given the compound CC1=C2[C@@H](c3ccccc3)C3C=CC2(C=C3C(F)(F)F)N(C(=O)NC2CCCCC2)C1=O (stereo partly specified) , what is its reported TGI?
### Response > 100 µM

### Prompt Given the compound CCCCC(C)(C/C=C/[C@@H]1[C@@H](C(O)CCCCCC(=O)OC)C(=O)C[C@H]1O[Si](C)(C)C(C)(C)C)O[Si](C)(C)C (stereo partly specified) , what is its reported TGI?
### Response > 100 µM

### Prompt Given the compound "N#Cc1c(N)n(-c2nc3ccccc3s2)c(=O)c2cc([N+](=O)[O-])ccc12" , what is its reported TGI?
### Response > 100 µM

### Prompt Given the compound "COC(=O)c1ccccc1NCc1cc(O)ccc1O" , what is its reported TGI?
### Response > 57.6 µM

### Prompt Given the compound CCCCN1/C(=N/Nc2n[nH]c(=O)c3ccccc23)SCC1c1ccc(Cl)cc1 (stereo unspecified) , what is its reported TGI?
### Response 92.7 µM

### Prompt Given the compound "C=CCCC1(CCP(=O)(c2ccccc2)c2ccccc2)OCCO1" , what is its reported TGI?
### Response > 100 µM

### Prompt Given the compound "CC(C)[C@H](NC(=O)OCc1ccccc1)C(=O)N[C@H](/C=C/C(=O)OC(C)(C)C)CO" , what is its reported TGI?
### Response > 100 µM
